Origin of the recorded values: patent US12344603B2

Target: IRE1α (Homo sapiens (Human), UniProt O75460, D688N)
Sequence (O75460 547-977 D688N): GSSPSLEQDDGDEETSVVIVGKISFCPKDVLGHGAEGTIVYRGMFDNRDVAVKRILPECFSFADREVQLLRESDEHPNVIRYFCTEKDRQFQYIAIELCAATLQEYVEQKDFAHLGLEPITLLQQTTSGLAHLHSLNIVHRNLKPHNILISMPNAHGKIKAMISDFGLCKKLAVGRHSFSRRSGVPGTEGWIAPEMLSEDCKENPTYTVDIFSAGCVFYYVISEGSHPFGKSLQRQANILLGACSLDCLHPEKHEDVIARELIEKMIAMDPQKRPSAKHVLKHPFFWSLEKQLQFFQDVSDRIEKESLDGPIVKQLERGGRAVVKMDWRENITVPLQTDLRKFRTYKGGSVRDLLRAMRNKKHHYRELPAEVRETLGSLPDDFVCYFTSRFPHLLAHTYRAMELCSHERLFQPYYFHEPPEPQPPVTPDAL
Test: IRE1α TR-FRET competition binding assay (IRE1α HTRF)
Conditions: TR-FRET competition binding to kinase domain of IRE1α
Counter-ions that a name gives are not always drawn.
Entries get a class label from measured IC50. See ranges: low bin = under 0.2 nM, mid bin = from 0.2 nM up to 0.3 nM, high bin = 0.3 nM and over

CC[C@@H](C)n1c(=O)c(-c2ccc(NS(=O)(=O)CCC(F)(F)F)c(F)c2)cc2cnc(N[C@H]3CC[C@H](N(C)C)CC3)nc21 (single isomer, unassigned): mid bin
COCCN(C)[C@H]1CC[C@H](Nc2ncc3cc(-c4ccc(NS(=O)(=O)CCC(F)(F)F)c(F)c4)c(=O)n(C(C)C)c3n2)CC1: low bin
CC(C)n1c(=O)c(-c2cc(F)c(NS(=O)(=O)CCC(C)(F)F)c(F)c2F)cc2cnc(N[C@H]3CC[C@H](N(C)C)CC3)nc21: high bin
CCn1c(=O)c(-c2ccc(NS(=O)(=O)Cc3ccccc3)c(F)c2F)cc2cnc(N[C@@H]3CNC[C@@H](F)C3)nc21: high bin
CC[C@H](C)n1c(=O)c(-c2ccc(NS(=O)(=O)CCC(F)(F)F)c(F)c2)cc2cnc(N[C@H]3CC[C@H](N(C)C)CC3)nc21 (single isomer, unassigned) [Compound 203A]: low bin
CC(C)n1c(=O)c(-c2ccc(NS(=O)(=O)Cc3ccccc3F)c(F)c2)cc2cnc(N[C@@H]3CNC[C@@H](F)C3)nc21: mid bin
CC(C)n1c(=O)c(-c2cc(F)c(NS(=O)(=O)CCC(F)(F)F)c(F)c2)cc2cnc(NC3CCC(N(C)C)C(F)C3)nc21 (single isomer, unassigned) [Compound 118A]: high bin
CC(C)n1c(=O)c(-c2cc(F)c(NS(=O)(=O)Cc3cccnc3C(F)(F)F)c(F)c2F)cc2cnc(N[C@@H]3CNC[C@@H](F)C3)nc21: mid bin
COc1nc(NS(=O)(=O)c2ccccc2Cl)ccc1-c1cc2cnc(N[C@H]3CC[C@H](N(C)C)CC3)nc2n(C(C)C)c1=O: mid bin
Cc1nc(NS(=O)(=O)c2ccccc2C#N)ccc1-c1cc2cnc(N[C@H]3CC[C@H](N(C)C)CC3)nc2n(C(C)C)c1=O: mid bin
CC(C)n1c(=O)c(-c2cc(F)c(NS(=O)(=O)Cc3ccc(Cl)cc3)c(F)c2)cc2cnc(N[C@H]3CC[C@H](N(C)C)CC3)nc21: mid bin
CC(C)n1c(=O)c(-c2cc(F)c(NCC(O)C(F)(F)F)c(F)c2F)cc2cnc(N[C@H]3CC[C@H](N(C)C)CC3)nc21 (stereo partly drawn) [Compound 99A]: high bin
CCN(C)[C@H]1CC[C@H](Nc2ncc3cc(-c4ccc(NS(=O)(=O)CCC(F)(F)F)c(F)c4)c(=O)n(C(C)C)c3n2)CC1: low bin
CC(C)n1c(=O)c(-c2ccc(NS(=O)(=O)Cc3ccccc3F)cn2)cc2cnc(N[C@H]3CC[C@H](N(C)C)CC3)nc21: mid bin
CC(C)n1c(=O)c(-c2ccc(NS(=O)(=O)c3ccccc3Cl)nc2)cc2cnc(N[C@H]3CC[C@H](N(C)CCF)CC3)nc21 [Compound 146, hydrochloride]: low bin
CC(C)n1c(=O)c(-c2ccc(NS(=O)(=O)C3CC4CCC3C4)c(F)c2)nc2cnc(N[C@H]3CC[C@H](N(C)C)CC3)nc21 (stereo partly drawn): high bin
O=c1c(-c2ccc(NS(=O)(=O)Cc3ccccc3)c(F)c2F)cc2cnc(N[C@@H]3CNC[C@@H](F)C3)nc2n1CC(F)F: high bin
O=c1c(-c2cc(F)c(NS(=O)(=O)Cc3ccccc3)c(F)c2F)cc2cnc(N[C@@H]3CNC[C@@H](F)C3)nc2n1C1CCC1: low bin
COc1ccc(Cl)cc1CS(=O)(=O)Nc1c(F)cc(-c2cc3cnc(N[C@@H]4CNC[C@@H](F)C4)nc3n(C(C)C)c2=O)c(F)c1F [Compound 97, hydrochloride]: mid bin
CC(C)n1c(=O)c(-c2ccc(NS(=O)(=O)CCC(F)(F)F)c(F)c2)cc2cnc(N[C@H]3CC[C@H](N(C)C4COC4)CC3)nc21: low bin
CC(C)n1c(=O)c(-c2ccc(NS(=O)(=O)CCC(F)(F)F)c(F)c2)cc2cnc(N[C@H]3CC[C@H](N4CCOCC4)CC3)nc21: low bin
COc1nc(NS(=O)(=O)c2ccccc2Cl)ccc1-c1nc2cnc(N[C@H]3CC[C@H](N(C)C)CC3)nc2n(C(C)C)c1=O: mid bin
